Please provide measured Population Tubulin-Different-Phenotype (%) for the entries that follow.
Test system: U2OS
Experiment: Multiplex assay against U2OS
Assay type: toxicity, cell-based
Details: human, 48 h, 1 µM, compound concentration 1 uM, replicate 2
Provide the reading as a plain figure in %.

Return value of Population Tubulin-Different-Phenotype (%) for input c1cn2cc(-c3ccc4cn[nH]c4c3)nc(Nc3ccc(N4CCOCC4)cc3)c2n1 , no commentary. 22

Return value of Population Tubulin-Different-Phenotype (%) for input C=CC(=O)Nc1cccc(C(=O)Nc2ccc(Nc3cc(-c4[nH]c(SC)nc4C)ccn3)cc2)c1 , no commentary. 28

Return value of Population Tubulin-Different-Phenotype (%) for input CN(C)C(=O)N[C@H]1CC[C@H](CCN2CCN(c3cccc(Cl)c3Cl)CC2)CC1.Cl [CARIPRAZINE HYDROCHLORIDE] , no commentary. 13

Return value of Population Tubulin-Different-Phenotype (%) for input C[C@@H](NCCCc1cccc(C(F)(F)F)c1)c1cccc2ccccc12.Cl [CINACALCET HYDROCHLORIDE] , no commentary. 12

Return value of Population Tubulin-Different-Phenotype (%) for input Cn1cc(-c2[nH]c3cc(NC(=O)[C@H](N)C4CCCCC4)cc4c3c2C=NNC4=O)cn1 , no commentary. 24

Return value of Population Tubulin-Different-Phenotype (%) for input CC(C)NCC(O)COc1ccc(CCOCC2CC2)cc1.Cl (stereo not drawn) [BETAXOLOL HYDROCHLORIDE] , no commentary. 10

Return value of Population Tubulin-Different-Phenotype (%) for input Cc1cc(C)cc(-c2cnc3cc(Cl)c(-c4cccc(O)c4)cc3c2OCCCN)c1 , no commentary. 16

Return value of Population Tubulin-Different-Phenotype (%) for input Cl.N#Cc1ccc2[nH]cc(CCCCN3CCN(c4ccc5oc(C(N)=O)cc5c4)CC3)c2c1 [VILAZODONE HYDROCHLORIDE] , no commentary. 11

----------
Tested on: Fibroblast
Test: Multiplex assay against human fibroblast
Format: toxicity, cell-based
Conditions: 12 h, 10 µM, compound concentration 10 uM, replicate 1
READOUT_KIND: Population Pyknosed Nuclei (%)
Kindly format the answer as number then unit.

Return value of Population Pyknosed Nuclei (%) for input CNCc1ccc(-c2cc(-c3nc(-c4ccc(S(=O)(=O)C(C)C)cc4)cnc3N)on2)cc1 , no commentary. 54%

Return value of Population Pyknosed Nuclei (%) for input CC(C)NCC(O)COc1ccc(CCOCC2CC2)cc1.Cl (configuration not stated) [BETAXOLOL HYDROCHLORIDE] , no commentary. 26%

Return value of Population Pyknosed Nuclei (%) for input Cc1csc2c(N[C@@H](C)CN3CCN(S(=O)(=O)c4ccc(Cl)c(Cl)c4)CC3)ncnc12 , no commentary. 38%

Return value of Population Pyknosed Nuclei (%) for input O=C1NCN(c2ccccc2)C12CCN(CCCOc1ccc(F)cc1)CC2 [SPIRAMIDE] , no commentary. 30%

Return value of Population Pyknosed Nuclei (%) for input COc1ncc(-c2ccc3nccc(-c4ccnnc4)c3c2)cc1NS(=O)(=O)c1ccc(F)cc1F , no commentary. 41%

Return value of Population Pyknosed Nuclei (%) for input COc1cccc([C@@H](C)NCCCc2ccccc2Cl)c1.Cl [TECALCET HYDROCHLORIDE] , no commentary. 29%

Return value of Population Pyknosed Nuclei (%) for input C[C@@H](NCCCc1cccc(C(F)(F)F)c1)c1cccc2ccccc12.Cl [CINACALCET HYDROCHLORIDE] , no commentary. 30%

----------
Tested on: HEK-293T
Assay: Multiplex assay against HEK293T
Assay type: toxicity, cell-based
Settings: human, 48 h, 1 µM, compound concentration 1 uM, replicate 2
READOUT_KIND: Population Healthy Nuclei (%)
Provide the reading as a plain figure in %.

Return value of Population Healthy Nuclei (%) for input CN(C)C(=O)N[C@H]1CC[C@H](CCN2CCN(c3cccc(Cl)c3Cl)CC2)CC1.Cl [CARIPRAZINE HYDROCHLORIDE] , no commentary. 80

Return value of Population Healthy Nuclei (%) for input CN(C)CC#Cc1ccc(OCCCc2sc(N3CCc4cccc(C(=O)Nc5nc6ccccc6s5)c4C3)nc2C(=O)O)c(F)c1 , no commentary. 78

Return value of Population Healthy Nuclei (%) for input CN1CCN(CCOc2cc(OC3CCOCC3)c3c(Nc4c(Cl)ccc5c4OCO5)ncnc3c2)CC1 , no commentary. 70

Return value of Population Healthy Nuclei (%) for input CN1CCN(c2ccc(OC(F)(F)F)c(Nc3ncc4c(n3)-c3c(c(C(N)=O)nn3CCO)CC4)c2)CC1 , no commentary. 45

Return value of Population Healthy Nuclei (%) for input C=CC(=O)Nc1cccc(C(=O)Nc2ccc(Nc3cc(-c4[nH]c(SC)nc4C)ccn3)cc2)c1 , no commentary. 78

Return value of Population Healthy Nuclei (%) for input CN1CCC[C@@H]1CCO[C@](C)(c1ccccc1)c1ccc(Cl)cc1.O=C(O)/C=C/C(=O)O [CLEMASTINE FUMARATE] , no commentary. 81

Return value of Population Healthy Nuclei (%) for input c1cn2cc(-c3ccc4cn[nH]c4c3)nc(Nc3ccc(N4CCOCC4)cc3)c2n1 , no commentary. 74

Return value of Population Healthy Nuclei (%) for input C=CC(=O)Nc1ccc2ncnc(Nc3ccc(OCc4cccc(F)c4)c(Cl)c3)c2c1.Cc1ccc(S(=O)(=O)O)cc1 , no commentary. 83

Return value of Population Healthy Nuclei (%) for input CN1CCCC(n2nc(Cc3ccc(Cl)cc3)c3ccccc3c2=O)CC1.Cl (centres undefined) [AZELASTINE HYDROCHLORIDE] , no commentary. 65

Return value of Population Healthy Nuclei (%) for input Cc1nc(-c2ccc(-c3ccc(C(=O)N4CCc5cc6c(cc54)C4(CCN(C)CC4)CO6)cc3)c(C)c2)no1 , no commentary. 72

Return value of Population Healthy Nuclei (%) for input Cc1csc2c(N[C@@H](C)CN3CCN(S(=O)(=O)c4ccc(Cl)c(Cl)c4)CC3)ncnc12 , no commentary. 47

Return value of Population Healthy Nuclei (%) for input CN(C)C(=O)/C(C#N)=C/c1ccc(-c2nc3cnc4[nH]ccc4c3n2C2CCCCC2)o1 , no commentary. 80

Return value of Population Healthy Nuclei (%) for input Cc1cc(C)cc(-c2cnc3cc(Cl)c(-c4cccc(O)c4)cc3c2OCCCN)c1 , no commentary. 75

Return value of Population Healthy Nuclei (%) for input Cn1cc(-c2[nH]c3cc(NC(=O)[C@H](N)C4CCCCC4)cc4c3c2C=NNC4=O)cn1 , no commentary. 14

Return value of Population Healthy Nuclei (%) for input CC(C)(O)CNc1ncc(-c2ccnc(Nc3ccnc(Cl)c3)n2)c(CC2CC2)n1 , no commentary. 68

Return value of Population Healthy Nuclei (%) for input Cc1[nH]c(/C=C2\C(=O)Nc3ccc(S(=O)(=O)N(C)c4cccc(Cl)c4)cc32)c(C)c1C(=O)N1CCN(C)CC1 , no commentary. 75

Return value of Population Healthy Nuclei (%) for input O=C1NCN(c2ccccc2)C12CCN(CCCOc1ccc(F)cc1)CC2 [SPIRAMIDE] , no commentary. 82

Return value of Population Healthy Nuclei (%) for input COc1cc(-n2cnc3cc(-c4ccc(Cl)cc4)sc3c2=O)ccc1OCCN1CCCC1 , no commentary. 79

Return value of Population Healthy Nuclei (%) for input C[C@@H](NCCCc1cccc(C(F)(F)F)c1)c1cccc2ccccc12.Cl [CINACALCET HYDROCHLORIDE] , no commentary. 74

----------
Test system: Fibroblast
Assay: Incucyte cell viability with human fibroblast; further: filed as whole numbers so only -1 and 0 and 1 occur
Assay type: toxicity, cell-based
Settings: 6 h, 10 µM, compound concentration 10 uM, replicate number 1, timepoint 6 hours
READOUT_KIND: Growth Rate

Give Growth Rate; test system Fibroblast; compound COc1ccc(Oc2cc(NCCC(F)(F)F)c3ncc(-c4ccc(C(=O)NC5CC5)c(C)c4)n3n2)c(F)c1F [BAY-1217389] 0

Give Growth Rate; test system Fibroblast; compound CCN(CC)CCCCNc1ncc2cc(-c3cc(OC)cc(OC)c3)c(NC(=O)NC(C)(C)C)nc2n1 [PD-173074] 1

Give Growth Rate; test system Fibroblast; compound CN1CCN(c2ccc(OC(F)(F)F)c(Nc3ncc4c(n3)-c3c(c(C(N)=O)nn3CCO)CC4)c2)CC1 [ONVANSERTIB] 0

Give Growth Rate; test system Fibroblast; compound CN(C)CC#Cc1ccc(OCCCc2sc(N3CCc4cccc(C(=O)Nc5nc6ccccc6s5)c4C3)nc2C(=O)O)c(F)c1 [A-1155463] 0

Give Growth Rate; test system Fibroblast; compound CC(C)NCC(O)COc1ccc(CCOCC2CC2)cc1.Cl (configuration not stated) [BETAXOLOL HYDROCHLORIDE] 0

Give Growth Rate; test system Fibroblast; compound CC(=O)OCC(=O)[C@@]1(O)CC[C@H]2[C@@H]3CCC4=CC(=O)CC[C@]4(C)[C@@]3(F)[C@@H](O)C[C@@]21C [FLUDROCORTISONE ACETATE] 0

Give Growth Rate; test system Fibroblast; compound CCCc1nc2c(C)cc(-c3nc4ccccc4n3C)cc2n1Cc1ccc(-c2ccccc2C(=O)O)cc1 1

Data origin: ChEMBL document CHEMBL4689842
